Ref: ChEMBL document CHEMBL1138111

- assayExplanation: Plasma AUC (0-6 h) in rat at 10 mg/kg, po
- Type: ADME, organism-based
- Design: time < 6 hr, dose 10 mg/kg, route oral
Below, each entry is listed alongside its reported AUC(0-t) at 6 h.
The figure you give is taken to be in µM·h; do not add the unit.

smilesEntry	unitInfo	AUC(0-t) at 6 h
O=C(Nc1nccs1)N1CCC(Cc2cnc[nH]2)CC1	µM·h	1.03

Requested field: AUC(0-t) at 6 h. Item: O=C(CCOc1ccc(CN2CCCCC2)cc1)N1CCC(Cc2cnc[nH]2)CC1
1.83

---

- testedTarget: Histamine H3 receptor (Cavia porcellus, UniProt Q9JI35)
- Sequence (Q9JI35 whole entry): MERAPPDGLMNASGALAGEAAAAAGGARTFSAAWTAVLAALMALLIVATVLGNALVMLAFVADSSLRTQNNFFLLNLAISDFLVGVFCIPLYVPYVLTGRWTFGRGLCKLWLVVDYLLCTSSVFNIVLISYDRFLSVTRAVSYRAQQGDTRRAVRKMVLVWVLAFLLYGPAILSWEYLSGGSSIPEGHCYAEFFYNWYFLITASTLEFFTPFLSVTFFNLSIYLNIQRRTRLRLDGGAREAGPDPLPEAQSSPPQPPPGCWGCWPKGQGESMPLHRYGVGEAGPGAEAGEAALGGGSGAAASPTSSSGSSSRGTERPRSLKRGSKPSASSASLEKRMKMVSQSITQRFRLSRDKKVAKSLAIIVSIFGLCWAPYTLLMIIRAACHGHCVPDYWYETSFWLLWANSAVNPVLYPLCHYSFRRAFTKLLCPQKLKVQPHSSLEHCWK
- assayExplanation: Displacement of [3H]N-alpha-methylhistamine from guinea pig histamine H3 receptor
reportedMetric: pKi
Conceptually, pKi converts a concentration in mol/L into minus its log10.

smilesEntry	pKi
c1cc(OCCCN2CCC(Cc3cnc[nH]3)CC2)cc(OC2CCCCC2)c1	8.52
O=C(c1ccc(OCCCN2CCC(Cc3c[nH]cn3)CC2)cc1)N1CCCCC1	7.59
c1ncc(CC2CCN(CCCOc3ccc(CN4CCC(N5CCCCC5)CC4)cc3)CC2)[nH]1	8.52
O=C(Nc1ncccn1)N1CCC(Cc2c[nH]cn2)CC1	8.10
CCN(CC)Cc1ccc(OCCCN2CCC(Cc3c[nH]cn3)CC2)cc1	8.40

// switching to the query molecule
Requested field: pKi. Item: O=C(Nc1nccs1)N1CCC(Cc2cnc[nH]2)CC1
8.40
